Just for reference, PubChem BioAssay (NCI) is where these values come from.

Endpoint: GI50. System: NCI-H460 lung. Items follow.
metric: GI50

Cc1c(C(N)=O)sc2c1c(=O)n(Cc1ccccc1)c1nnc(SCC(=O)Nc3ccc(Cl)cc3)n21 | 3280 nM
CC1(C)C(=O)/C(=C\c2ccccn2)C[C@]2(C)[C@H]3CC[C@@H]4[C@@H](C(=O)/C=C/c5ccccn5)CC[C@@]4(C)[C@]3(C)CC[C@@H]12 | 1970 nM
O=C(N/N=C\c1c(O)ccc2ccccc12)C1CC1 | 3000 nM
COc1ccc(S(=O)(=O)Nc2cc(/C=C\c3cc(OC)c(OC)c(OC)c3)cc(OC)c2OC)cc1 | 36.7 nM
FC(F)(F)c1ccc(-c2cncn2-c2ccccc2)cc1 | 16900 nM
CC(=O)[CH-]C(C)=O.CC(=O)[CH-]C(C)=O.[CH2-]CCCCCCC.[CH2-]CCCCCCC.[Sn+4] | 17300 nM
COc1ccc2nc3cc(Cl)ccc3c(NCCCCCN3CCCCC3)c2c1 | 36.1 nM
Cn1cc(C2=C(c3cn(CCCO)c4ccccc34)C(=O)NC2=O)c2ccccc21 | 4900 nM
CC(=O)OC[C@]1(C)C=C2C(=O)[C@](C)(O)C3(CC3)C(C)=C2[C@H]1OC(=O)N(C)CCN(C)C(=O)OC(C)(C)C | 833 nM

* * *

In this section we review reported TGI values for a set of compounds.
# Tested on: K-562 leukemia
# procedure-text: NCI tumour cell line growth inhibition, 48 h
metric: TGI

Cc1c(C(N)=O)sc2c1c(=O)n(Cc1ccccc1)c1nnc(SCC(=O)Nc3ccc(Cl)cc3)n21 | > 100 µM
O=C(CC1(O)C(=O)Nc2c(Cl)cc(Cl)cc21)c1ccco1 (stereo unspecified) | > 100 µM
CCCCCCC1NN(C(C)=O)C(CCCCCC)NN1C(C)=O (stereo unspecified) | > 100 µM
COc1cccc2c1-c1ccccc1C2=O | > 100 µM
CCC(C(C)N1CC(=O)NC(=O)C1)N1CC(=O)NC(=O)C1 (stereo unspecified) | > 100 µM
COc1ccc(C2C=C(c3ccccc3)Nc3nnnn32)cc1 (stereo unspecified) | > 100 µM
NC(CSS(=O)(=O)c1ccccc1)C(=O)O (stereo unspecified) | > 10 µM
O=C1OC2C(O)COC2(O)C1(O)Cc1c[nH]c2ccccc12 (stereo unspecified) | > 100 µM
Nc1nc(N)c2cc(CNc3ccc(C(=O)NC(CC(=O)O)C(=O)O)cc3)ccc2n1 (stereo unspecified) | > 100 µM
CN(C)CCNc1ccc(NCCN(C)C)c2c1C(=O)c1ncsc1C2=O | 34.3 µM
Cc1ccc(S(=O)(=O)NC(=O)Nc2ccc(C(=O)O)c(O)c2)cc1 | > 100 µM

* * *

# System: M14 melanoma
# procedure-text: NCI tumour cell line growth inhibition, 48 h; in the data active means GI50 below about 0.43 µM; inactive means the rest
Classes used: active, inactive

Cn1cc(C2=C(c3cn(CCSC(=N)N)c4ccccc34)C(=O)NC2=O)c2ccccc21 | inactive
Cc1c(C(=O)O)n(-c2ccc(Cl)cc2)c2ncnc(N)c12 | inactive
CC(C)[C@]12O[C@H]1[C@@H]1O[C@]13[C@]1(O[C@H]1C[C@H]1C4=C(CC[C@@]13C)C(=O)OC4)[C@@H]2OC(=O)CN(C)C | active
C[C@@H](O)[C@H]1C(=O)N2C(C(=O)O)=C(SCCN=CN)C[C@H]12 | inactive
CC1CN1C1=CC(=O)c2c(c(CO)cn2C)C1=O (centres undefined) | active
Cc1c2cnccc2c(C)c2c1c1cc(CO)ccc1n2C | active
COc1ccc(/C=N/C2=C(C#N)C(c3ccccc3)c3c(ccc4ccccc34)O2)cc1 (centres undefined) | inactive
C1CN1c1nc(N2CC2)nc(N2CC2)n1 | inactive
Nc1nc(N)c2cc(CNc3ccc(C(=O)NC(CC(=O)O)C(=O)O)cc3)ccc2n1 (centres undefined) | active
CC(=O)[CH-]C(C)=O.CC(=O)[CH-]C(C)=O.[CH2-]CCCCCCC.[CH2-]CCCCCCC.[Sn+4] | inactive
COc1cccc(/C=N/Nc2ncnc3c2cnn3-c2cccc(OC)c2)c1 | inactive
COc1cc(O)c2c(=O)c(OC)c(-c3ccc(OC)c(OC)c3)oc2c1.[Co] | inactive
O=C(N/N=C\c1c(O)ccc2ccccc12)C1CC1 | inactive
Cn1cc(C2=C(c3cn(CCCO)c4ccccc34)C(=O)NC2=O)c2ccccc21 | inactive
